test.protocol: Stability in normal mouse serum at 37 °C, radio-TLC (Experimental Example 2)
Format: in vitro ADME
assay.context: after 24 h, read-out: radiochemical purity in mouse serum

- input.smiles: "[N-]=[N+]=NCCOCCOCCOCCNC(=O)c1ccc([125I])cc1"
  remaining at 24 h: "≥ 90%"

Provenance of the data: patent KR20170031305A
